Experiment: LAMP-1 surface exposure blockers, TALL-104 cells – cell-based, flow cytometry, MLPCN library, primary screen (AID 651702)
Conditions: TALL-104 LAMP-1 surface exposure, at 10 µM, stronger effect = higher value, cells stimulated with thapsigargin and PMA
About 2,400 (0.67%) of roughly 360,000 compounds were called active. The sample as a whole holds a higher share of actives than the screen did.
MEASURED PROPERTY: inhibition (%)
Express your answer in %, writing the number without its unit.

Data request: Look at this compound and give its reported inhibition. Cc1c(/C=N\NC(=O)c2cc3ccccc3o2)c2ccccc2n1C
Data returned: 65.6

Data request: // next record Cc1cccc(N(C)C(=O)c2cc(S(=O)(=O)N3CCCCC3)c[nH]2)c1
Data returned: -3.8

Data request: // next record CC(NC(=O)CN(C)S(=O)(=O)c1ccc(F)cc1)C1CC2CCC1C2 (stereo not drawn)
Data returned: 0.1

Data request: // next record CC(C)Cn1cnc2c(SCc3ccc(Cl)cc3)nc(N)nc21
Data returned: 90.1

Data request: // next record Cc1cc(C)n(CC(O)CN(c2ccccc2)S(=O)(=O)c2ccc3ccccc3c2)n1 (stereo not drawn)
Data returned: -1

Data request: // next record NS(=O)(=O)c1ccc(-c2ccc(/C=C3\SC(=O)NC3=O)o2)cc1
Data returned: -14.3

Data request: // next record Cc1cccc(CNC(=O)c2sc(=O)n(Cc3ccccc3C)c2C)c1
Data returned: -3.5

Data request: // next record COc1ccc(S(=O)(=O)N2CCN(CC(=O)N3CCNC3=O)CC2)cc1OC
Data returned: -0.1

Data request: // next record CCCCN(CCCC)CC(O)Cn1c2ccccc2c(=O)c2ccccc21 (stereo not drawn)
Data returned: 11.9

Data request: // next record COc1cc(OC)c2c(-c3cccc(-c4cccc(N)c4)c3)cc(=O)oc2c1
Data returned: 4.4

Data request: // next record Nc1cc(N)nc(SCc2ccc(Cl)cc2)n1
Data returned: 0.3

Data request: // next record CCN1C(=O)[C@H]2[C@@H](c3ccc(-c4ccc(F)cc4)cc3)N[C@@](Cc3ccccc3)(C(=O)OC)[C@H]2C1=O
Data returned: 97.9

Data request: // next record O=S(=O)(NC1CC1)c1ccc(F)c(F)c1
Data returned: -10.9

Data request: // next record CCc1ccc(NC(=O)CS(=O)CC(=O)NCCCc2ccccc2)cc1 (stereo not drawn)
Data returned: -1.4

Data request: // next record Cn1c(=O)c([N+](=O)[O-])c(Oc2ccccc2)c2ccccc21
Data returned: -0.7

Data request: // next record CC(C)(C)n1nc2c(c1NC(=O)c1cc3ccccc3o1)CSC2
Data returned: 0

Data request: // next record COc1ccc(OC)c(CN2C(=O)CCC2(C)c2nnnn2Cc2ccccc2)c1 (stereo not drawn)
Data returned: -8.5

Data request: // next record Cc1ccc(C2(c3ccc(C)cc3)NC(=O)N(Cc3c(C)noc3C)C2=O)cc1
Data returned: 4.4
